Recorded max response by entry
protocol.description: qHTS Assay for Lipid Storage Modulators (AID 1519)
test.settings: Drosophila S3 cells, BODIPY lipid droplet/cell ratio, laser cytometry; measured here: cell count channel max response; cells loaded with oleic acid
Results filed as inconclusive are left out.
Could you give me the number in %? Just the number is fine.

>>> observed_value("CN(C)CC[C@H](c1ccc(Br)cc1)c1ccccn1")
-4.35
>>> observed_value("COc1cccc(Cn2c(=O)c(-c3ccc(F)cc3)nc3cnc(N4CCNCC4)nc32)c1")
2.95
>>> observed_value("CCN(CC)CCC[C@H](C)Nc1c2ccc(Cl)cc2nc2ccc(OC)cc12")
-11.8
>>> observed_value("CC(C)CN1CC[C@@]2(CCCN(C(=O)c3cc(C(F)(F)F)cc(C(F)(F)F)c3)C2)C1")
13.4
>>> observed_value("COCC(=O)N1CCC[C@@]2(CCN(c3ccccc3)C2)C1")
17.9

Prompt line: What value of max response has been recorded for this entry: CC(C)NC(=O)N1CC[C@@]2(CCCN(C(=O)c3cnccn3)C2)C1
Response line: -1.16

Prompt line: Query: max response; subject: COC(=O)N1CCC[C@@]2(CCN(c3ccccc3)C2)C1
Response line: 14

Prompt line: Please give the measured max response for this molecule: O=c1c(-c2ccccc2)coc2cc(O)cc(O)c12
Response line: -5.73

Prompt line: So what's the measured max response for this one? CC(=O)N1CCC[C@@]2(CCN(Cc3ccc(C#N)cc3)C2)C1
Response line: 7.32

Prompt line: Bench note: what max response did Cc1ccccc1-c1ccc2ncnc(N3CCN(C)CC3)c2c1 show?
Response line: 10.5

Prompt line: Look up max response: COc1ccccc1-c1ccc2ncnc(NCc3cnc(C)cn3)c2c1
Response line: 13.2
